The compounds listed here are annotated with their Emax.
- tested_on: human GR (Homo sapiens)
- experiment_summary: Transrepression Assay (GITAR), TNFα-β-lactamase reporter in U937 cells
- Assay type: cell-based
- Set-up: U937 cells contain an endogenous glucocorticoid receptor (GR); endogenous in cells; host or cells: U937 cells stably transfected with the TNF-alpha promoter/beta-lactamase reporter
- test_context: U-937, activity repressed by 100 nM dexamethasone alone set as 100%; read-out: maximal activity in the transrepression (GITAR) assay

compound	tested_on	Emax
CNC(=O)Nc1ccc(S(=O)(=O)N(CC2CC2)C[C@H]2CCC3=Cc4c(cnn4-c4ccc(F)cc4)C[C@@]32C)c(Cl)c1	human GR (Homo sapiens)	> 5%
Cn1cc(S(=O)(=O)N(CC2CCCO2)C[C@H]2CCC3=Cc4c(cnn4-c4ccc(F)cc4)C[C@@]32C)c(C(F)(F)F)n1 (stereo partly shown)	human GR (Homo sapiens)	> 5%
Cc1noc(C)c1S(=O)(=O)N(CCO)C[C@H]1CCC2=Cc3c(cnn3-c3ccc(F)cc3)C[C@@]21C	human GR (Homo sapiens)	> 5%
C[C@]12Cc3cnn(-c4ccc(F)cc4)c3C=C1CC[C@@H]2CN(CCc1ccccc1Cl)S(=O)(=O)c1ccccc1F	human GR (Homo sapiens)	> 5%
C[C@]12Cc3cnn(-c4ccc(F)cc4)c3C=C1CC[C@@H]2CN(CCc1ccccc1F)S(=O)(=O)C1CC1	human GR (Homo sapiens)	> 5%
Cc1noc(C)c1S(=O)(=O)N(CC1CC1)C[C@H]1CCC2=Cc3c(cnn3-c3ccc(F)cc3)C[C@@]21C	human GR (Homo sapiens)	> 5%
C[C@]12Cc3cnn(-c4ccc(F)cc4)c3C=C1CC[C@@H]2CN(CC1CC1)S(=O)(=O)c1ccc(F)c(Cl)c1	human GR (Homo sapiens)	> 5%

###

The compounds listed here are annotated with their GITAR > GRAMM % SEP.
- tested_on: UniProt P04150
- experiment_summary: Transrepression Assay (GITAR), TNFα-β-lactamase reporter in U937 cells
- Assay type: cell-based
- Parameters: U937 cells contain an endogenous glucocorticoid receptor (GR); endogenous in cells; host or cells: U937 cells stably transfected with the TNF-alpha promoter/beta-lactamase reporter
- test_context: GITAR Emax minus GRAMMER Emax

compound	GITAR > GRAMM % SEP
C[C@]12Cc3cnn(-c4ccc(F)cc4)c3C=C1CC[C@@H]2CN(CCc1ccc(O)cc1)S(=O)(=O)CC(F)(F)F	13.6%
Cc1nn(C)c(Cl)c1S(=O)(=O)N(CC1CC1)C[C@H]1CCC2=Cc3c(cnn3-c3ccc(F)cc3)C[C@@]21C	19.7%
C[C@]12Cc3cnn(-c4ccc(F)cc4)c3C=C1CC[C@@H]2CN(CC#N)S(=O)(=O)c1cc(Cl)c(Cl)s1	27.2%
C[C@]12Cc3cnn(-c4ccc(F)cc4)c3C=C1CC[C@@H]2CN(CCc1ccccc1O)S(=O)(=O)Cc1cccnc1	22.9%
CCCS(=O)(=O)N(CCOC)C[C@H]1CCC2=Cc3c(cnn3-c3ccc(F)cc3)C[C@@]21C	2.7%
C[C@]12Cc3cnn(-c4ccc(F)cc4)c3C=C1CC[C@@H]2CN(CC(O)C(F)(F)F)S(=O)(=O)Cc1cccnc1 (some centres unmarked)	44.7%
Cc1ccccc1S(=O)(=O)N(CCO)C[C@H]1CCC2=Cc3c(cnn3-c3ccc(F)cc3)C[C@@]21C	25.7%
C[C@]12Cc3cnn(-c4ccc(F)cc4)c3C=C1CC[C@@H]2CN(CC1(O)CC1)S(=O)(=O)CC(F)(F)F	19.2%
Cc1noc(C)c1S(=O)(=O)N(CCCc1ccccc1)C[C@H]1CCC2=Cc3c(cnn3-c3ccc(F)cc3)C[C@@]21C	14.4%
COc1ccccc1CCN(C[C@H]1CCC2=Cc3c(cnn3-c3ccccc3)C[C@@]21C)S(=O)(=O)CC(F)(F)F	1.7%
C[C@]12Cc3cnn(-c4ccc(F)cc4)c3C=C1CC[C@@H]2CN(CC#N)S(=O)(=O)c1ccc(Oc2ccccn2)cc1	1.3%
Cn1cnc(S(=O)(=O)N(CC#N)C[C@H]2CCC3=Cc4c(cnn4-c4ccc(F)cc4)C[C@@]32C)c1	30.9%
C[C@]12Cc3cnn(-c4ccc(F)cc4)c3C=C1CC[C@@H]2CN(CCO)S(=O)(=O)c1ccc(C#N)cc1Cl	29.0%
C[C@]12Cc3cnn(-c4ccc(F)cc4)c3C=C1CC[C@@H]2CN(CCc1ccccn1)S(=O)(=O)Cc1ccccc1C(F)(F)F	37.2%

###

- tested_on: glucocorticoid receptor (Homo sapiens)
- Construct: endogenous in cells
- experiment_summary: Ligand binding assay (GR BIND)
The compounds listed here are annotated with their log10 of Ki.
observable: log10 of Ki (log10 of the value in nM)

structure_string	log10 of Ki
C[C@]12Cc3cnn(-c4ccc(F)cc4)c3C=C1CC[C@@H]2CN(CCO)S(=O)(=O)c1ccc(C#N)cc1Cl	0.64
C[C@H](O)CN(C[C@H]1CCC2=Cc3c(cnn3-c3ccc(F)cc3)C[C@@]21C)S(=O)(=O)CC(F)(F)F	0.34
C[C@]12Cc3cnn(-c4ccc(F)cc4)c3C=C1CC[C@@H]2CN(CC1(O)CC1)S(=O)(=O)CC(F)(F)F	0.46
CCCS(=O)(=O)N(CCc1ccccn1)C[C@H]1CCC2=Cc3c(cnn3-c3ccc(F)cc3)C[C@@]21C	0.11
C[C@H](O)CN(C[C@H]1CCC2=Cc3c(cnn3-c3ccc(F)cc3)C[C@@]21C)S(=O)(=O)Cc1ccccc1C(N)=O	1.12
C[C@]12Cc3cnn(-c4ccc(F)cc4)c3C=C1CC[C@@H]2CN(CC1CC1)S(=O)(=O)Cc1ccccc1	0.48
C[C@]12Cc3cnn(-c4ccc(F)cc4)c3C=C1CC[C@@H]2CN(CCO)S(=O)(=O)c1ccc(Oc2ccccn2)cc1	0.48
CC(=O)Nc1ccc(S(=O)(=O)N(CC2CC2)C[C@H]2CCC3=Cc4c(cnn4-c4ccc(F)cc4)C[C@@]32C)cc1	-0.05

###

- tested_on: glucocorticoid receptor (Homo sapiens)
- Construct: endogenous in cells
- Sequence (P04150 1-777): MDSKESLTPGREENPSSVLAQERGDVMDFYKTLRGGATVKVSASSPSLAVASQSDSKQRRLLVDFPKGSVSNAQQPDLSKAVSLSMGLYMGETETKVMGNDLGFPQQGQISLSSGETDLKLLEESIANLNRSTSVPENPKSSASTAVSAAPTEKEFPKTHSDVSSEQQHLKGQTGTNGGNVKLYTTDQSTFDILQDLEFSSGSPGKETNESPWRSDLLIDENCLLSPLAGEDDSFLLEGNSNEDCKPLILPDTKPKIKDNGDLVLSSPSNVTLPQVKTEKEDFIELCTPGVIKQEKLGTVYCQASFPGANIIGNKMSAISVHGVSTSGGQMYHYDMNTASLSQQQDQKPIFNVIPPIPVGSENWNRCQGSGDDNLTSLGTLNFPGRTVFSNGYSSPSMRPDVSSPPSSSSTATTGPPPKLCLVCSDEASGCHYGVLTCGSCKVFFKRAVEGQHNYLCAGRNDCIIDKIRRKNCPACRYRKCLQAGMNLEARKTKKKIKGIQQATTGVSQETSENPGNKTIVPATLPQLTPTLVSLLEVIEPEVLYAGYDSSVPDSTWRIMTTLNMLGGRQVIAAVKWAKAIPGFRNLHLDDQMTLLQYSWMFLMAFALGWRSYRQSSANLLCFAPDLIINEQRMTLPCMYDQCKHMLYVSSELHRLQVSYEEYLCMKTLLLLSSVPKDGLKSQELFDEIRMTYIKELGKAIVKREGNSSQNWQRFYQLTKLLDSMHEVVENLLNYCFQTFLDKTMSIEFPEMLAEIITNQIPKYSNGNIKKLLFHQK
- experiment_summary: Ligand binding assay (GR BIND)
The molecules listed here are annotated with their Ki.

molecule	Ki [nM]
COc1ccccc1CCN(C[C@H]1CCC2=Cc3c(cnn3-c3ccc(F)cc3)C[C@@]21C)S(=O)(=O)c1ccccc1F [Example 90]	3.6
CC(=O)Nc1ccc(S(=O)(=O)N(CCO)C[C@H]2CCC3=Cc4c(cnn4-c4ccc(F)cc4)C[C@@]32C)cc1 [Example 85]	6.9
Cn1cc(S(=O)(=O)N(CCc2ccccc2F)C[C@H]2CCC3=Cc4c(cnn4-c4ccc(F)cc4)C[C@@]32C)c(C(F)(F)F)n1 [Example 98]	1.5
C[C@]12Cc3cnn(-c4ccc(F)cc4)c3C=C1CC[C@@H]2CN(CCc1ccccc1F)S(=O)(=O)CCN1C(=O)c2ccccc2C1=O [Example 121]	5.3
C[C@]12Cc3cnn(-c4ccc(F)cc4)c3C=C1CC[C@@H]2CN(CCO)S(=O)(=O)c1ccccc1C(F)(F)F [Example 70]	4.5
CCCCCc1ccc(S(=O)(=O)N(CC2CC2)C[C@H]2CCC3=Cc4c(cnn4-c4ccc(F)cc4)C[C@@]32C)cc1 [Example 9]	2.2
C[C@]12Cc3cnn(-c4ccc(F)cc4)c3C=C1CC[C@@H]2CN(CCc1ccccn1)S(=O)(=O)Cc1ccccc1C(F)(F)F [Example 153]	1.2
C[C@]12Cc3cnn(-c4ccc(F)cc4)c3C=C1CC[C@@H]2CN(CC#N)S(=O)(=O)c1ccc(F)c(Cl)c1 [Example 20]	2.2
C[C@]12Cc3cnn(-c4ccc(F)cc4)c3C=C1CC[C@@H]2CN(CC1(OS(=O)(=O)CC(F)(F)F)CC1)S(=O)(=O)CC(F)(F)F [Example 136]	2.5
C[C@]12Cc3cnn(-c4ccc(F)cc4)c3C=C1CC[C@@H]2CN(CCc1ccccc1F)S(=O)(=O)Cc1cccc(C(F)(F)F)c1 [Example 88]	3.7
C[C@]12Cc3cnn(-c4ccc(F)cc4)c3C=C1CC[C@@H]2CN(CCc1ccccc1F)S(=O)(=O)Cc1cccc(Cl)c1 [Example 106]	1.7
C[C@]12Cc3cnn(-c4ccc(F)cc4)c3C=C1CC[C@@H]2CN(CC#N)S(=O)(=O)c1ccc(-c2ccccc2)cc1 [Example 42]	5.9
Cc1noc(C)c1S(=O)(=O)N(C)C[C@H]1CCC2=Cc3c(cnn3-c3ccc(F)cc3)C[C@@]21C [Example 176]	1.3
C[C@]12Cc3cnn(-c4ccc(F)cc4)c3C=C1CC[C@@H]2CN(CCO)S(=O)(=O)c1ccc(Oc2ccccc2)cc1 [Example 79]	4.8
COC(=O)c1ccccc1CS(=O)(=O)N(C[C@H]1CCC2=Cc3c(cnn3-c3ccc(F)cc3)C[C@@]21C)C[C@H](C)O [Example 181]	2.8
C=CCN(C[C@H]1CCC2=Cc3c(cnn3-c3ccc(F)cc3)C[C@@]21C)S(=O)(=O)c1ccccc1F [Example 3]	0.8
C[C@H](O)CN(C[C@H]1CCC2=Cc3c(cnn3-c3ccc(F)cc3)C[C@@]21C)S(=O)(=O)Cc1ccccc1C(=O)O [Example 183]	64
CCN(C[C@H]1CCC2=Cc3c(cnn3-c3ccc(F)cc3)C[C@@]21C)S(=O)(=O)CC(F)(F)F [Example 179]	1.2
C[C@]12Cc3cnn(-c4ccc(F)cc4)c3C=C1CC[C@@H]2CN(CC#N)S(=O)(=O)c1ccc(F)cc1 [Example 46]	0.7
C[C@]12Cc3cnn(-c4ccc(F)cc4)c3C=C1CC[C@@H]2CN(CC(O)C(F)F)S(=O)(=O)CC(F)(F)F (some centres unmarked) [Example 133]	0.8
COCCN(C[C@H]1CCC2=Cc3c(cnn3-c3ccc(F)cc3)C[C@@]21C)S(=O)(=O)CCN1C(=O)c2ccccc2C1=O [Example 118]	3.8
CC([C@H]1CCC2=Cc3c(cnn3-c3ccc(F)cc3)C[C@@]21C)N(CCc1ccccn1)S(=O)(=O)Cc1cccnc1 (some centres unmarked) [Example 197]	4.4
C[C@]12Cc3cnn(-c4ccc(F)cc4)c3C=C1CC[C@@H]2CN(CCc1ccccc1F)S(=O)(=O)Cc1ccc(Cl)c(Cl)c1 [Example 111]	1.8
Cc1nn(C)c(Cl)c1S(=O)(=O)N(CC#N)C[C@H]1CCC2=Cc3c(cnn3-c3ccc(F)cc3)C[C@@]21C [Example 52]	1.9
COc1ccccc1CCN(C[C@H]1CCC2=Cc3c(cnn3-c3ccc(F)cc3)C[C@@]21C)S(=O)(=O)Cc1cccnc1 [Example 125]	1
C[C@]12Cc3cnn(-c4ccc(F)cc4)c3C=C1CC[C@@H]2CN(CCO)S(=O)(=O)Cc1cccc(C(F)(F)F)c1 [Example 63]	9.1
